# TGT: P2X purinoceptor 2 (Rattus norvegicus)
# Sequence (P49653 whole entry): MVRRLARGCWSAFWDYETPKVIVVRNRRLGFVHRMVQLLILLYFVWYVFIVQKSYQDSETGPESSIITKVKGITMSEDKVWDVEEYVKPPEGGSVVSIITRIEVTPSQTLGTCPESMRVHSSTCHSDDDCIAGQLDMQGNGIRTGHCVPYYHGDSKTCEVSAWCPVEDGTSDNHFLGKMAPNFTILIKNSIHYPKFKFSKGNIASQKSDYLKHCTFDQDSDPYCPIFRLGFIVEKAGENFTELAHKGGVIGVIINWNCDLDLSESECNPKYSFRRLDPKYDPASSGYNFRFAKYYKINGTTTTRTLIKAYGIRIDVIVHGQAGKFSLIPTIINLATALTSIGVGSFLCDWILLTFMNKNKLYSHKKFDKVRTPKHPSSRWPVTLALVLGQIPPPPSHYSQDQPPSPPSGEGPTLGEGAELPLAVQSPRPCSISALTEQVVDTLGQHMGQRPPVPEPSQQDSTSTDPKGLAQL
# ASSAY_PROTOCOL: Antagonist activity against rat P2X2 receptor expressed in Xenopus laevis oocyte assessed as inhibition of ATP-induced inward current by two-electrode voltage-clamp electrophysiology
ASSAY_ENDPOINT: IC50 (nM)

INSERT INTO results (compound, tgt, assay_endpoint, obs_value) VALUES
  ('Nc1cc(Nc2cc(S(=O)(=O)O)c(N)c3c2C(=O)c2ccccc2C3=O)cc(C(=O)O)c1', 'P2X purinoceptor 2 (Rattus norvegicus)', 'IC50', 1000),
  ('Nc1c(S(=O)(=O)O)cc(Nc2ccc(S(=O)(=O)O)cc2)c2c1C(=O)c1ccccc1C2=O', 'P2X purinoceptor 2 (Rattus norvegicus)', 'IC50', 1000),
  ('Cc1cc(C)c(Nc2cc(S(=O)(=O)O)c(N)c3c2C(=O)c2ccccc2C3=O)c(C)c1N', 'P2X purinoceptor 2 (Rattus norvegicus)', 'IC50', 1000),
  ('Nc1ncnc2c1ncn2[C@@H]1O[C@H](COP(=O)(O)OP(=O)(O)OP(=O)(O)O)[C@H]2OC3(O[C@H]21)C([N+](=O)[O-])=CC(=[N+]([O-])[O-])C=C3[N+](=O)[O-] (stereo not given in full) [TNP-ATP SODIUM]', 'P2X purinoceptor 2 (Rattus norvegicus)', 'IC50', 4000),
  ('Nc1c(S(=O)(=O)O)cc(Nc2ccc(CC(=O)O)cc2)c2c1C(=O)c1ccccc1C2=O', 'P2X purinoceptor 2 (Rattus norvegicus)', 'IC50', 1000),
  ('Cc1cccc(Nc2cc(S(=O)(=O)O)c(N)c3c2C(=O)c2ccccc2C3=O)c1', 'P2X purinoceptor 2 (Rattus norvegicus)', 'IC50', 800),
  ('Nc1c(S(=O)(=O)O)cc(Nc2cccc(C(=O)O)c2)c2c1C(=O)c1ccccc1C2=O', 'P2X purinoceptor 2 (Rattus norvegicus)', 'IC50', 1000),
  ('Nc1c(S(=O)(=O)O)cc(NC2CCCCC2)c2c1C(=O)c1ccccc1C2=O', 'P2X purinoceptor 2 (Rattus norvegicus)', 'IC50', 1000);

---

# TGT: P2X purinoceptor 2 (Rattus norvegicus)
# Sequence (P49653 whole entry): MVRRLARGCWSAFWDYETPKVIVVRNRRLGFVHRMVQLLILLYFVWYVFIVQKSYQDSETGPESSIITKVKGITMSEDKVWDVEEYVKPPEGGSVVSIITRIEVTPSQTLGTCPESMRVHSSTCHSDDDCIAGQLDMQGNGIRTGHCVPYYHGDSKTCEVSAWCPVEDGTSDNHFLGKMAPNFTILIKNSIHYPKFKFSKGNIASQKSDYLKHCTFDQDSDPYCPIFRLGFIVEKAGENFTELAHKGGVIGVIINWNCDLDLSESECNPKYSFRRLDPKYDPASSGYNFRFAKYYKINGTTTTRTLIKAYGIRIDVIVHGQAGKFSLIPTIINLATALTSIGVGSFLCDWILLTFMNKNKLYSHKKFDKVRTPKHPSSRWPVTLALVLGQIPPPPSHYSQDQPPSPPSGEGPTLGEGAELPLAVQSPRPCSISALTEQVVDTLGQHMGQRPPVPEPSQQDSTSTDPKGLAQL
# ASSAY_PROTOCOL: Antagonist activity against rat P2X2 receptor expressed in Xenopus laevis oocyte assessed as inhibition of ATP-induced inward current by two-electrode voltage-clamp electrophysiology
ASSAY_ENDPOINT: IC50 (µM)

INSERT INTO results (compound_structure, unit_abbreviation, obs_value) VALUES
  ('Cc1ccccc1Nc1cc(S(=O)(=O)O)c(N)c2c1C(=O)c1ccccc1C2=O', 'µM', 1);

(I) Nc1c(S(=O)(=O)O)cc(Nc2cccc(Nc3nc(Cl)nc(Cl)n3)c2)c2c1C(=O)c1ccccc1C2=O
(II) Nc1c(S(=O)(=O)O)cc(Nc2ccc(Nc3nc(Cl)nc(Cl)n3)c(S(=O)(=O)O)c2)c2c1C(=O)c1ccccc1C2=O
From the recorded data, which exceeds the other in IC50: I or II ? Returns: label corresponding to the selected item.
II
(II: 1.16 µM, I: 0.086 µM)

---

# TGT: P2Y purinoceptor 4 (Homo sapiens)
# Sequence (P51582 whole entry): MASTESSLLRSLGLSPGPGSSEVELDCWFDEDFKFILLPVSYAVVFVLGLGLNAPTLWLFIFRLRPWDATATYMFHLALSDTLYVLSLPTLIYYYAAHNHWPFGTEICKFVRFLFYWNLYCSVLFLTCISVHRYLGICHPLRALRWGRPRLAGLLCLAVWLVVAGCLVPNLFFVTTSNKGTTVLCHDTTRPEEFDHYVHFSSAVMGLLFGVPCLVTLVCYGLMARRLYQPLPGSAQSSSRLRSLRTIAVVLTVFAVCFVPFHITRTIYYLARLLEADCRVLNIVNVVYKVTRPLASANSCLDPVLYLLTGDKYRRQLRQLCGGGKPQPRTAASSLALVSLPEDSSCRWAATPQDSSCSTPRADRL
# ASSAY_PROTOCOL: Antagonist activity against human P2Y4 receptor expressed in 1321N1 astrocytoma cells by calcium mobilization assay
pIC50: −log10 of the molar value.
ASSAY_ENDPOINT: pIC50

INSERT INTO assay_data (compound_structure, obs_value) VALUES
  ('COc1cccc(Nc2cc(S(=O)(=O)O)c(N)c3c2C(=O)c2ccccc2C3=O)c1', 5.00),
  ('Nc1c(S(=O)(=O)O)cc(Nc2ccc(Nc3nc(Cl)nc(Cl)n3)cc2)c2c1C(=O)c1ccccc1C2=O', 5.00),
  ('Nc1c(S(=O)(=O)O)cc(Nc2ccc(Nc3nc(O)nc(O)n3)cc2)c2c1C(=O)c1ccccc1C2=O', 5.00);

(P) Nc1c(S(=O)(=O)O)cc(Nc2cccc(Nc3nc(Cl)nc(Cl)n3)c2)c2c1C(=O)c1ccccc1C2=O
(Q) Nc1c(S(=O)(=O)O)cc(Nc2cccc(Cl)c2)c2c1C(=O)c1ccccc1C2=O
(R) Nc1c(S(=O)(=O)O)cc(Nc2cc(Nc3nc(Cl)nc(Cl)n3)cc(C(=O)O)c2)c2c1C(=O)c1ccccc1C2=O
Rank order required: pIC50, descending. Present the labels in the sequence the task asks for.
R, P, Q
(R: 5.84, P: 5.00, Q: 4.66)

---

# TGT: P2X purinoceptor 2 (Rattus norvegicus, UniProt P49653)
# Sequence (P49653 whole entry): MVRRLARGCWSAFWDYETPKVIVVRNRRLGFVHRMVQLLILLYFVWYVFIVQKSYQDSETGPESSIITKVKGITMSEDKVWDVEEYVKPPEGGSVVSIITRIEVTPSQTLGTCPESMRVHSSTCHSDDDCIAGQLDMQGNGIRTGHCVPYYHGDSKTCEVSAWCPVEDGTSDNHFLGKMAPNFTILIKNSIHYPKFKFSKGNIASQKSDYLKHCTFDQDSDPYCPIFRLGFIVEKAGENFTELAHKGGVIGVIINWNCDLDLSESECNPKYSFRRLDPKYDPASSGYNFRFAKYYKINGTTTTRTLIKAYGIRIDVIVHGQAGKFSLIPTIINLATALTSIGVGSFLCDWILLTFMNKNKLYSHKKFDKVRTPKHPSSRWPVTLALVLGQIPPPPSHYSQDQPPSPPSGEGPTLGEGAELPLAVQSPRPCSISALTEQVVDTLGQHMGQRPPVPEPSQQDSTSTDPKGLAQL
# ASSAY_PROTOCOL: Antagonist activity against rat P2X2 receptor expressed in Xenopus laevis oocyte assessed as inhibition of ATP-induced inward current by two-electrode voltage-clamp electrophysiology
ASSAY_ENDPOINT: IC50

INSERT INTO assay_data (compound_structure, assay_endpoint, obs_value) VALUES
  ('Cc1cc(Nc2ccccc2)c2c(c1N)C(=O)c1ccccc1C2=O', 'IC50', '> 10 µM'),
  ('Nc1c(S(=O)(=O)O)cc(Nc2ccc(Nc3ncccn3)cc2)c2c1C(=O)c1ccccc1C2=O', 'IC50', '> 1 µM'),
  ('Nc1c(S(=O)(=O)O)cc(Nc2cccc(C(F)(F)F)c2)c2c1C(=O)c1ccccc1C2=O', 'IC50', '> 1 µM');

Now take the following molecule into account.
Summary for this molecule, Cc1ccc(Nc2cc(S(=O)(=O)O)c(N)c3c2C(=O)c2ccccc2C3=O)cc1 : IC50 is 1 µM
